system: UO-31; experiment: NCI tumour cell line growth inhibition, 48 h
Activity calls are given as the source filed them. No stated cut-off is given here; in the data, active = GI50 up to about 1.1 µM and inactive = higher.
GI50 values by entry
readout-type: GI50

compound=Cc1cc(C)c2c(c1)C/C(=C\c1cccc(C)c1C(=O)O)C2=O readout_type=GI50 result_value="39.6 µM (inactive)"
compound=CCCCCC/C=C\CCCCCCCCCc1cccc(OC)c1O readout_type=GI50 result_value="> 100 µM (inactive)"
compound="CC(C)(C)NC1C2CCC(C)(C1O)C2(C)C (stereo unspecified)" readout_type=GI50 result_value="> 100 µM (inactive)"
compound=Cc1ccc(Nc2nc3ccccc3nc2NS(=O)(=O)c2ccc(N)cc2)cc1 readout_type=GI50 result_value="21.5 µM (inactive)"
compound=CCOC(=O)c1cc2cc(N(C(C)=O)C(C)=O)ccc2s1 readout_type=GI50 result_value="27.7 µM (inactive)"
compound="O=C1CC(NC(=O)C(F)(F)F)c2c(Br)sc(N3CCNCC3)c21 (stereo unspecified)" readout_type=GI50 result_value="61.4 µM (inactive)"
